Target: T1, Recombinant IRF5 (interferon regulatory factor 5), biotin-labeled (UniProt Q13568 1-498, biotin (EZ-Link NHS-PEG4-Biotin, ratio 1:1))
T1 construct: Interferon regulatory factor 5 (IRF5), recombinant; also called B-IRF5; source: made and purified by Top Gene Technologies (Montreal, Quebec, Canada)
T1 sequence (looked up): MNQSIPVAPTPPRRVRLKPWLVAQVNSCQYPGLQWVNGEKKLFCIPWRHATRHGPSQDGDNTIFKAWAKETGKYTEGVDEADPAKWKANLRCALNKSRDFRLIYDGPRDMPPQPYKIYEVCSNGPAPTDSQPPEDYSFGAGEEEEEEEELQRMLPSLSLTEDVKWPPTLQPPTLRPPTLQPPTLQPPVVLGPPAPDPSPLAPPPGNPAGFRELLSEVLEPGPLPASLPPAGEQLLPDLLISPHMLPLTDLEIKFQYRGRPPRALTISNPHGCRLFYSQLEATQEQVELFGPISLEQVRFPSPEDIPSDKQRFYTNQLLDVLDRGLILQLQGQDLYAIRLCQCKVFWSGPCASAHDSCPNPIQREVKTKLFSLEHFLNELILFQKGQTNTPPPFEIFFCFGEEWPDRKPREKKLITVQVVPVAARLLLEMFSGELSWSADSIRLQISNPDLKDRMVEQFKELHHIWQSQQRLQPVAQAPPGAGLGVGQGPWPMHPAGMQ
Assay: BLI; Octet RED; biotin-labeled IRF5 loaded onto streptavidin biosensors in PBS for 15 min; sensors incubated in PBS with increasing concentrations of IRF5D for 10 min; n = 3
Conditions: both partners purified
OUTCOME_MEASURE: Kd (µM)
Write the number in µM without appending the unit.

*Q* Which Kd reading was recorded for the binder Ac-ELDWDADDIRLQIDNPD-NH2 [IRF5D (Ac-ELDWDADDIRLQIDNPD-NH2), IRF5 decoy peptide] ?
*A* 3.72
